# tgt: Ubiquitin carboxyl-terminal hydrolase 30 (Homo sapiens)
# assayComment: inhibitors of ubiquitin-specific protease 30 deubiquitylating enzyme, concentration dependence, in vitro biochemical, validation of primary hits (AID 1645865)
# testSettings: purified USP30, Ub-rhodamine cleavage, fluorescence, 2 h
Calls of active or inactive are those of the source.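 Rule for the calls: active = maximal inhibition of the USP30 enzyme reaching 30% or more across the dose series; inactive = the rest.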
Recorded IC50 by entry
propertyMeasured: IC50

                                   compound  propertymeasured              result
0  O=C(Cn1c(=O)n(Cc2ccccc2)c(=O)c2ncccc21)NCc1ccccc1Cl              IC50  > 50 µM (inactive)
1  COc1ccc(C(=O)Nc2ccccc2C(=O)NCc2ccccc2)cc1              IC50             30.4 µM
2  O=C(NCc1ccc(-c2nc3cnccc3o2)cc1)c1cc2ccccc2o1              IC50             2.99 µM
3  Cc1cnc2nc3c(cc2c1)CN(S(=O)(=O)c1cc(F)ccc1C)CC3              IC50  > 50 µM (inactive)
4  COc1cc2c(cc1OC)-c1cc(Nc3ccc(Br)cc3)nc(=O)n1CC2              IC50            0.939 µM
5  COc1ccc(NC(=O)Cn2c(CS(=O)(=O)c3ccc(C)cc3)nc3ccccc32)cc1              IC50             7.12 µM
6  COc1cc2c(=O)n(CCC(=O)NCc3ccco3)c(=O)n(CC(=O)Nc3c(C)cccc3C)c2cc1OC              IC50  > 50 µM (inactive)
7  CCC1=C(c2ccc(C)cc2)S(=O)(=O)NC1=NCC(=O)NC(C)c1ccccc1 (centres undefined)              IC50             21.1 µM
8     CN(CCCNC(=O)c1cccc2c1SCCC2=O)c1ccccc1              IC50  > 50 µM (inactive)

* * *

# tgt: UniProt Q70CQ3
# assayComment: inhibitors of ubiquitin-specific protease 30 deubiquitylating enzyme, concentration dependence, in vitro biochemical, validation of primary hits (AID 1645865)
# testSettings: purified USP30, Ub-rhodamine cleavage, fluorescence, 2 h
Active and inactive are the calls of the source.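 Rule for the calls: active = maximal inhibition of the USP30 enzyme reaching 30% or more across the dose series; inactive = the rest.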
Outcomes: t (active), f (inactive)

smilesRepresentation	classLabel
Cc1cccc2sc(NC(=O)c3nnn(-c4ccc(F)cc4)n3)nc12	f
Cc1nn(Cc2ccccc2)c2sc(C(=O)Nc3nc4ccccc4[nH]3)cc12	t
CCCc1c(C(=O)O)c(O[C@H]2O[C@H](C)[C@@H](OC)[C@H](OC)[C@@H]2OC)cc2cc3c(c(O)c12)C(=O)c1c(O)cc(O[C@@H]2O[C@@H](C)[C@H](O[C@H]4O[C@H](C)[C@@H](OC)[C@H](OC)[C@@H]4O)[C@@H](OC)[C@H]2O)cc1C3=O	f
O=C(Nc1ccc(F)c(Cl)c1)c1ccc(N2CCCCS2(=O)=O)cc1Cl	f
CCCn1c(=O)n(CC(=O)c2ccccc2F)c2c(C(N)=O)nc(-c3ccco3)nc21	f
Cc1cccc(NC(=O)CSc2nnc(-c3n[nH]c4c3CCC4)n2N)c1	t

* * *

# tgt: Ubiquitin carboxyl-terminal hydrolase 30 (Homo sapiens) (UniProt Q70CQ3)
# Sequence (Q70CQ3 whole entry, looked up): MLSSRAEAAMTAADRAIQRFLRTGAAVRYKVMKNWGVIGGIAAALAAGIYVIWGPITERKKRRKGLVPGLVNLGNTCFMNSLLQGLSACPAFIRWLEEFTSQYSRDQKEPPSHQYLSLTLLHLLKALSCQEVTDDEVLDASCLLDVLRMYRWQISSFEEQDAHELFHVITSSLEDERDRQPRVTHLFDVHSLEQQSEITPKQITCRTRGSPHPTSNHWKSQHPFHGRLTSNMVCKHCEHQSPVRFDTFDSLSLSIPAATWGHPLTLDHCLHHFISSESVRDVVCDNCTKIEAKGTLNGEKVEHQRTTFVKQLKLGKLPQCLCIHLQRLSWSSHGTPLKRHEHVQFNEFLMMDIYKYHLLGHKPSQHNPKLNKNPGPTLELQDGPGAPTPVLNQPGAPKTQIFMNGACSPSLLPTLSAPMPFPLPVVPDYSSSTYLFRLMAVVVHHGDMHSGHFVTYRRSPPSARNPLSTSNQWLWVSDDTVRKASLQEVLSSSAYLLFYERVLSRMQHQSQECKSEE
# assayComment: inhibitors of ubiquitin-specific protease 30 deubiquitylating enzyme, concentration dependence, in vitro biochemical, validation of primary hits (AID 1645865)
# testSettings: purified USP30, Ub-rhodamine cleavage, fluorescence, 2 h
Active and inactive are the calls of the source.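 Rule for the calls: active = maximal inhibition of the USP30 enzyme reaching 30% or more across the dose series; inactive = the rest.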
Outcomes: yes (1) for active, no (0) for inactive

compound	classLabel
CCOC(=O)C1CCN(C(=O)c2ccc3c(c2)NC(=O)C2CCCN32)CC1 (stereo not given)	no (0)
Cc1nn(C)c2c1[C@@H](c1ccc(F)cc1)[C@H](NC(=O)c1ccccc1)C(=O)N2	no (0)
Cc1cc(C)c(O)c(-c2cc(C(=O)Nc3ccccc3Cl)[nH]n2)c1	yes (1)
Cc1cc(C(=O)CSc2nc3ccccc3[nH]2)c(C)n1Cc1ccco1	no (0)
Cc1ccc(Cn2c(=O)c3ccccc3n3c(CCC(=O)N4CCN(c5ccccn5)CC4)nnc23)cc1	yes (1)
CC(C)OC(=O)c1cc2c(ccn2C)n1CC(=O)N1CCN(C(=O)c2ccco2)CC1	no (0)
COc1ncccc1CN1CCn2c(Cn3cccn3)cnc2C1C (stereo not given)	no (0)
N#Cc1c(-c2cccs2)cc(-c2cccs2)[nH]c1=O	no (0)
Cc1ccccc1NC(=O)c1ccn(COc2ccc(Cl)cc2)n1	no (0)
O=C(Cn1cnc(-c2noc(-c3ccncc3)n2)c1)N1CCN(c2ccccc2F)CC1	no (0)
Cc1ccc(NC(=O)c2ccc3c(c2)N(S(C)(=O)=O)CC3)cc1	yes (1)
Cn1ccnc1CN1C[C@H]2CCN(c3ncccn3)C[C@H]2C1	no (0)
COc1ccccc1NC(=O)c1cc2c(C)nn(Cc3ccccc3)c2s1	yes (1)
CCCc1nc2sc3c(NCCCN4CCOCC4)ncnc3c2c2c1CCC2	no (0)
CCC(C)Oc1cccc(C(=O)Nc2ccc(CN3CCOCC3)cc2)c1 (stereo not given)	no (0)
O=C(Nc1cccc(C(F)(F)F)c1)c1cc2c(s1)-c1ccccc1OC2	yes (1)
c1ccc(Cc2nn3c(-c4cccnc4)nnc3c3ccccc23)cc1	yes (1)
COc1ccc(C2CC(c3ccccc3)N(C(=O)C3CC3)c3ncnn32)cc1 (stereo not given)	no (0)
N#Cc1ccc(-c2ccc(OCC(=O)Nc3ccc4c(c3)OCO4)cc2)cc1	yes (1)
COc1ccc(-c2cc(-c3ccccc3)nc(SCC(N)=O)c2C#N)cc1OC	yes (1)
CC(C)CCCCCCCCCCC(=O)N(C)[C@H](CO)C(=O)N[C@H](C)C(=O)NCC(=O)N(C)C1C(=O)N[C@@H](C)C(=O)NC(C(=O)O)Cc2ccc(O)c(c2)-c2cc1ccc2O (stereo not given in full)	no (0)
COc1cc(=O)c(C(=O)Nc2ccc(C#N)cc2)nn1-c1cccc(F)c1	yes (1)
CC(C)(C)c1ccc(Cn2nnc3c(=O)[nH]c(C4CCN(S(=O)(=O)c5ccc(S(=O)(=O)NC6CC6)cc5)CC4)nc32)cc1	yes (1)
COc1ccc(CNC(=O)Nc2cccc3ccccc23)cc1	yes (1)
COc1cc2c(oc(=O)c3cc(C)cc(OC)c32)c2c([C@@H]3OC(C)[C@@H](O)[C@@](C)(O)C3O)ccc(O)c12 (stereo not given in full)	no (0)
O=C(O)Cc1ccc(Nc2nc3ccccc3n3nnnc23)cc1	no (0)
O=C(CC1C(=O)N(Cc2ccccc2)c2nc3ccccc3n21)NCCc1ccccc1 (stereo not given)	yes (1)
COc1cc(C(=O)OCc2csc(-c3ccccc3)n2)ccc1OCC(=O)Nc1ccc(F)cc1	no (0)
O=c1c(-c2nc(C3CC3)no2)cccn1Cc1c(F)cccc1Cl	no (0)
COc1ccc(-c2nc3n(n2)C(CC(=O)Nc2cccc4ccccc24)C(=O)N3)cc1 (stereo not given)	yes (1)

* * *

# tgt: Ubiquitin carboxyl-terminal hydrolase 30 (Homo sapiens) (UniProt Q70CQ3)
# assayComment: inhibitors of ubiquitin-specific protease 30 deubiquitylating enzyme, concentration dependence, in vitro biochemical, validation of primary hits (AID 1645865)
# testSettings: purified USP30, Ub-rhodamine cleavage, fluorescence, 2 h
Active and inactive are the calls of the source.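 Rule for the calls: active = maximal inhibition of the USP30 enzyme reaching 30% or more across the dose series; inactive = the rest.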
Outcomes: active, inactive

compound	tgt	classLabel
COc1ccccc1CNC(=O)C1CCCN(c2nc3ccsc3c(=O)s2)C1 (stereo not given)	Ubiquitin carboxyl-terminal hydrolase 30 (Homo sapiens) (UniProt Q70CQ3)	active
Cc1ccccc1NC(=O)c1nc(-c2cn(Cc3ccc(F)cc3)nn2)no1	Ubiquitin carboxyl-terminal hydrolase 30 (Homo sapiens) (UniProt Q70CQ3)	active
Cc1cc(C(=O)N2CCOC3(CC=CCN(CCc4ccccc4)C3=O)C2)n2nccc2n1 (stereo not given)	Ubiquitin carboxyl-terminal hydrolase 30 (Homo sapiens) (UniProt Q70CQ3)	inactive
O=C(Nc1ccccc1)c1cn2c3c(cccc3c1=O)CC2	Ubiquitin carboxyl-terminal hydrolase 30 (Homo sapiens) (UniProt Q70CQ3)	inactive
COc1ccc(-c2ocnc2C(=O)Nc2cccc(Cl)c2C)cc1OC	Ubiquitin carboxyl-terminal hydrolase 30 (Homo sapiens) (UniProt Q70CQ3)	active
CO[C@H]1[C@@H](O)[C@H](C)O[C@H](O[C@H]2[C@H](Oc3cccc4c(O)c5c(=O)oc6ccc(C)c7c(=O)oc(c34)c5c67)O[C@H](C)[C@H](O)[C@@H]2O)[C@@H]1O	Ubiquitin carboxyl-terminal hydrolase 30 (Homo sapiens) (UniProt Q70CQ3)	inactive
CC(C(=O)NCc1ccc2c(c1)OCO2)N1CCN(c2ccc(O)cc2)CC1 (stereo not given)	Ubiquitin carboxyl-terminal hydrolase 30 (Homo sapiens) (UniProt Q70CQ3)	inactive
O=c1ccc(-c2noc(Cc3cccc(Cl)c3)n2)c[nH]1	Ubiquitin carboxyl-terminal hydrolase 30 (Homo sapiens) (UniProt Q70CQ3)	inactive
C[C@]12C(=O)N(c3ccc(C(=O)NCc4ccc(F)cc4)cc3)C(=O)N1CCc1c2[nH]c2ccccc12	Ubiquitin carboxyl-terminal hydrolase 30 (Homo sapiens) (UniProt Q70CQ3)	active
COc1ccc(-c2nc3n(n2)C(c2cccc(O)c2)C2=C(CCCC2=O)N3)cc1 (stereo not given)	Ubiquitin carboxyl-terminal hydrolase 30 (Homo sapiens) (UniProt Q70CQ3)	active
COc1c2n(c3ccccc13)[C@@]1(O)C(=O)N(C)C(=O)[C@@]1(O)c1c-2n(C)c2ccc(Cl)cc12	Ubiquitin carboxyl-terminal hydrolase 30 (Homo sapiens) (UniProt Q70CQ3)	inactive
COCCNC(=O)Cn1c(=O)n(Cc2ccccc2)c(=O)c2c3c(sc21)CCC3	Ubiquitin carboxyl-terminal hydrolase 30 (Homo sapiens) (UniProt Q70CQ3)	active
COc1ccccc1-c1nc2c3c(C)c(C)n(Cc4cccnc4)c3ncn2n1	Ubiquitin carboxyl-terminal hydrolase 30 (Homo sapiens) (UniProt Q70CQ3)	inactive
COc1ccc(C(=O)Nc2nc3n(n2)C(c2ccccc2)CC(=O)N3)cc1 (stereo not given)	Ubiquitin carboxyl-terminal hydrolase 30 (Homo sapiens) (UniProt Q70CQ3)	active
COc1cc(-c2cc(C(=O)Nc3cc(C)[nH]n3)c3ccccc3n2)cc(OC)c1OC	Ubiquitin carboxyl-terminal hydrolase 30 (Homo sapiens) (UniProt Q70CQ3)	active
COc1ccc(NC2c3ccccc3C(=O)N2c2ccccn2)cc1 (stereo not given)	Ubiquitin carboxyl-terminal hydrolase 30 (Homo sapiens) (UniProt Q70CQ3)	inactive
CCn1c(=N)n(CCOc2ccc(F)cc2)c2ccccc21	Ubiquitin carboxyl-terminal hydrolase 30 (Homo sapiens) (UniProt Q70CQ3)	active
COc1ccc(CNC(=O)CSc2nc3nc(C)ccc3o2)cc1	Ubiquitin carboxyl-terminal hydrolase 30 (Homo sapiens) (UniProt Q70CQ3)	active
O=C(Cn1c(-c2ccccc2)ncc(C(=O)NC2CC2)c1=O)Nc1ccccc1	Ubiquitin carboxyl-terminal hydrolase 30 (Homo sapiens) (UniProt Q70CQ3)	active
CCc1nc(N2CCCC2=O)sc1C(=O)Nc1cccc(C(C)=O)c1	Ubiquitin carboxyl-terminal hydrolase 30 (Homo sapiens) (UniProt Q70CQ3)	inactive
CCc1noc(-c2ccc(OCC(=O)Nc3ccc(C)cc3C)cc2)n1	Ubiquitin carboxyl-terminal hydrolase 30 (Homo sapiens) (UniProt Q70CQ3)	active
CC(C)c1ccc(/C=C/C(=O)N2CCc3ccccc3C2)cc1	Ubiquitin carboxyl-terminal hydrolase 30 (Homo sapiens) (UniProt Q70CQ3)	active
Cn1c(CCN2CCCC2)nc2cc(NS(=O)(=O)c3ccccc3)ccc21	Ubiquitin carboxyl-terminal hydrolase 30 (Homo sapiens) (UniProt Q70CQ3)	inactive
COc1cc(COc2ccc3c(C)c(CC(=O)N4CC[C@@]5(O)CCCC[C@H]5C4)c(=O)oc3c2C)cc(OC)c1OC	Ubiquitin carboxyl-terminal hydrolase 30 (Homo sapiens) (UniProt Q70CQ3)	active
O=C(/C=C/c1ccccc1)N1CCN(C2=NS(=O)(=O)c3ccccc32)CC1	Ubiquitin carboxyl-terminal hydrolase 30 (Homo sapiens) (UniProt Q70CQ3)	inactive
O=[N+]([O-])c1ccc(NCc2ccc(-c3cccs3)s2)nc1	Ubiquitin carboxyl-terminal hydrolase 30 (Homo sapiens) (UniProt Q70CQ3)	active
CCCC1Cc2c(sc3nc(SCC)nc(N)c23)CO1 (stereo not given)	Ubiquitin carboxyl-terminal hydrolase 30 (Homo sapiens) (UniProt Q70CQ3)	active
CCC(CC)n1[nH]c(=O)c2c1NC(=O)CSC2c1ccc2c(c1)OCO2 (stereo not given)	Ubiquitin carboxyl-terminal hydrolase 30 (Homo sapiens) (UniProt Q70CQ3)	active
CSc1nc(Cc2ccc(Cl)cc2)nc2ccccc12	Ubiquitin carboxyl-terminal hydrolase 30 (Homo sapiens) (UniProt Q70CQ3)	inactive
O=C(CSc1ccc(-c2cccc([N+](=O)[O-])c2)nn1)Nc1cccc(F)c1	Ubiquitin carboxyl-terminal hydrolase 30 (Homo sapiens) (UniProt Q70CQ3)	active
